# experimentalSystem: Bt-SARS-CoV-2 Spike Protein (RBD) (R319-F541).mFc (SARS-CoV-2)
# assayExplanation: Luminex beads, supernatant
observationType: MFI (MFI)
Please state the figure in MFI; there is no need to write the unit.

As a guide, the following entries are already answered.
binder	unitOfMeasurement	MFI
mAb10982 (antibody, V domains shown) VH: EVQLVESGGGLVQPGGSLRLSCAASGLTVSSNYMSWVRQAPGKGLEWVSVIYSGGTTYYADSVKGRFTISRHNSKNTLSLQMNSLRAEDTAVYYCARGEGANYYGMDVWGQGTTVTVSS VL: QSVLTQPPSVSGAPGQRVTISCTGSSSNIGTGYDVHWYQQLPGTAPKLLIYGNSNRPSGVPDRFSGSKSGTSASLAITGLQAEDEADYYCQSYDSSLSGYVVFGGGTKLTVLG	MFI	12300
mAb10939 (antibody, V domains shown) VH: EVQLVESGGGLVQPGGSLRLSCAASGLTVSSNYMNWVRQVPGKGLEWVSVIYSGGSKFYVDSVKGRFTISRHNSKNTLYLQMNSLRPEDTAVYYCTRDAQYYGMDVWGQGTTVTVSS VL: DIQMTQSPSSLSASVGDRVTITCRASQSISTYLHWYQQKPGEAPKLLIYAASSLQSGVPSRFSGSGSGTDFTLTISSLQPEDFATYYCQQSYSTPPEIFGQGTKLEIKR	MFI	18700

For the next question, use this binder.
Ask | What value of MFI has been reported for the following binder? mAb10957 (antibody, V domains shown) VH: EVQLVESGGGLVQPGGSLRLSCAASGVTVSSNYMSWVRQAPGKGLEWVSVIYSGGSTFYADSVKGRFTISRDNSKNTLFLQMNSLRIEDTAVYYCARDLGPYGMDVWGQGTTVTVSS VL: DIQLTQSPSFLSASVGDRVTITCRASQGISSYLAWYQQKPGKAPKLLIYAASTLQSGVPSRFSGSGSGTQFILTISSLQPEDFATYYCQQLNSYPGFTFGPGTKVDIKR
Reply | 10600
